- Experimental target: Integrin alpha-IIb/beta-3 (Homo sapiens, UniProt P05106+P08514)
- Sequence (P05106 27-788 limits assumed): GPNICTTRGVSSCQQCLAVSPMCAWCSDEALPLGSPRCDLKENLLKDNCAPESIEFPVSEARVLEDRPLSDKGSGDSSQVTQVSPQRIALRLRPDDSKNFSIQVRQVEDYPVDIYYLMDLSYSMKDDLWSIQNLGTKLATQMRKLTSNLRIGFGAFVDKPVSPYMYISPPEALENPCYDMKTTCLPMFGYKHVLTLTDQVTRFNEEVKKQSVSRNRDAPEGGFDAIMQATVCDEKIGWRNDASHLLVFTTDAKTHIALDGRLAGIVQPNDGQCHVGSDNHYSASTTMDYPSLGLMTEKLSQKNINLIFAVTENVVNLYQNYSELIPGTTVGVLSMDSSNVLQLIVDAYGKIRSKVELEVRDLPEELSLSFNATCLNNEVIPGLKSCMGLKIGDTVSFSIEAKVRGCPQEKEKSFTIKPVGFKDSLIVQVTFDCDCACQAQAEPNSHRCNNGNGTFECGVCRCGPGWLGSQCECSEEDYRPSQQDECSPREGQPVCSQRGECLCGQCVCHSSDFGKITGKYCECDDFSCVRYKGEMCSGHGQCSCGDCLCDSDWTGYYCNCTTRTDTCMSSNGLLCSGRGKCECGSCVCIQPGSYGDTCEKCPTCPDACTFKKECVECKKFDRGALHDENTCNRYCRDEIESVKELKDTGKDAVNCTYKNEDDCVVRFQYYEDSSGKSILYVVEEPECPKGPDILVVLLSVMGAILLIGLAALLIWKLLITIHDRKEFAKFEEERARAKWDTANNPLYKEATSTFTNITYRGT
- Sequence (P08514 32-887 limits assumed): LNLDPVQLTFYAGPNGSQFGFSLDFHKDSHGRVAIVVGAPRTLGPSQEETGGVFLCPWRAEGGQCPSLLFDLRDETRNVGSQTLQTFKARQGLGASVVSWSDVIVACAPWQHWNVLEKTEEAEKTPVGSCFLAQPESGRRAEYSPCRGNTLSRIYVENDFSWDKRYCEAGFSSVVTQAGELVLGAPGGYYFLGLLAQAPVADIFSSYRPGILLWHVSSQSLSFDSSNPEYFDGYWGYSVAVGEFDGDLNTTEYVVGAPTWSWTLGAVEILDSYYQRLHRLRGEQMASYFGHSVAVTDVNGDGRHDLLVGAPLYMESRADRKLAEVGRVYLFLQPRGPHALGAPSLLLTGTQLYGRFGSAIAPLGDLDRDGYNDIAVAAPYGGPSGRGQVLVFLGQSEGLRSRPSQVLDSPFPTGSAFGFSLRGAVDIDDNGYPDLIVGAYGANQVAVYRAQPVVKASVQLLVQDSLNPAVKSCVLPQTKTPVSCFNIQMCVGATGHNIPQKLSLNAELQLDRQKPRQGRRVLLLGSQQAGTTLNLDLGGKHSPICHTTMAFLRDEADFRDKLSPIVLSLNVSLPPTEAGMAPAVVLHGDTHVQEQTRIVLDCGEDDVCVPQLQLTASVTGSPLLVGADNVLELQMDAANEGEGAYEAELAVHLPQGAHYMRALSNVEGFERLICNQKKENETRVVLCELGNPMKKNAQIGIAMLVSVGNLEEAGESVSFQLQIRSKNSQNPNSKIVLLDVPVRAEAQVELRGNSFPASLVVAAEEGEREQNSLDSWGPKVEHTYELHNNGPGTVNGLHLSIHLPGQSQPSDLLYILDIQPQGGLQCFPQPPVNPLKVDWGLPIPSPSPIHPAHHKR
- Sequence (P08514 891-1039 limits assumed): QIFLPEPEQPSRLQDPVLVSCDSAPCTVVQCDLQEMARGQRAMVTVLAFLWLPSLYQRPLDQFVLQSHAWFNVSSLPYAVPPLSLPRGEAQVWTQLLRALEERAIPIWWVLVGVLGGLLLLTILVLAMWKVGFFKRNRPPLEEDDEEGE
- Experiment summary: The compound was tested for the inhibition of fibrinogen receptor
- Type: protein-complex assay
Experimental readout: IC50 (nM)
One number for each entry, in nM.

Each compound below has a recorded value; state its IC50.
1. C[C@@H]1NC(=O)C[S+]([O-])C[C@@H](C(=O)O)NC(=O)[C@H](CC(=O)O)NC(=O)CNC(=O)[C@H](CCCN=C(N)N)NC1=O (stereo in doubt; 68B)
2. N=C(N)NCCC[C@@H]1NC(=O)CNC(=O)C(c2ccc3ccccc3c2)SC[C@@H](C(=O)O)NC(=O)[C@H](CC(=O)O)NC(=O)CNC1=O (stereo in doubt; 21B)
3. N=C(N)NCCC[C@@H]1NC(=O)CNC(=O)C(c2cccc(C(F)(F)F)c2)SC[C@@H](C(=O)O)NC(=O)[C@H](CC(=O)O)NC(=O)CNC1=O (stereo in doubt; 24B)

4.7
2.8
5.7

---

Record form. Attribute: pIC50. Fill in for each entry.
- Experimental target: Integrin alpha-IIb/beta-3 (Homo sapiens, UniProt P05106+P08514)
- Experiment summary: The compound was tested for the inhibition of fibrinogen receptor
- Type: protein-complex assay
*1 amine or outer side, *2 acyl side, *3 side chain or, on linkers, in order; H or OH if unused. Where a SMILES comes first, the peptide text is derived from it. Bridges are numbered along the chain shown (N, C = ends). [ ]: non-standard residue; d: D form. Cys(O)(CH2CO) = O=C([C@H](C[S+]([O-])CC(=O)[*:3])N[*:1])[*:2]
Answers are plain numbers, as −log10 of the molar value.

Here's what some known entries look like.
CC(C)[C@@H]1NC(=O)C[S+]([O-])C[C@@H](C(=O)O)NC(=O)[C@H](CC(=O)O)NC(=O)CNC(=O)[C@H](CCCNC(=N)N)NC1=O (stereo partly drawn) (VRGD[Cys(O)(CH2CO)]-OH; lactam N-5)
8.54
N=C(N)NCCC[C@@H]1NC(=O)[C@H](CO)NC(=O)CSC[C@@H](C(=O)O)NC(=O)[C@H](CC(=O)O)NC(=O)CNC1=O
8.40

Field request: pIC50 | item: "CC(C)[C@H]1NC(=O)CSC[C@@H](C(=O)O)NC(=O)[C@H](CC(=O)O)NC(=O)CNC(=O)[C@H](CCCNC(=N)N)NC1=O" 7.77

---

- Experimental target: Integrin alpha-IIb/beta-3 (Homo sapiens, UniProt P05106+P08514)
- Experiment summary: The compound was tested for the inhibition of fibrinogen receptor
- Type: protein-complex assay
Where a SMILES comes first, the peptide text is derived from it. Bridges are numbered along the chain shown (N, C = ends). [ ]: non-standard residue; d: D form.
Experimental readout: pIC50
One number for each entry, as −log10 of the molar value.

Here's what some known entries look like.
N=C(N)NCCC[C@@H]1NC(=O)[C@@H](Cc2ccc(O)cc2)NC(=O)CSC[C@@H](C(=O)O)NC(=O)[C@H](CC(=O)O)NC(=O)CNC1=O ({CH2CO}-[dY]RGDC-OH; thioether N-5)
7.70
N=C(N)NCCC[C@@H]1NC(=O)CNC(=O)C(c2cccc3ccccc23)SC[C@@H](C(=O)O)NC(=O)[C@H](CC(=O)O)NC(=O)CNC1=O (stereo in doubt; 17A)
8.28
N=C(N)NCCC[C@@H]1NC(=O)[C@H](CCC(=O)O)NC(=O)C[S+]([O-])C[C@@H](C(=O)O)NC(=O)[C@H](CC(=O)O)NC(=O)CNC1=O (stereo in doubt; 73B)
7.17
N=C(N)NCCC[C@@H]1NC(=O)[C@H](Cc2ccc(O)cc2)NC(=O)C[S+]([O-])C[C@@H](C(=O)O)NC(=O)[C@H](CC(=O)O)NC(=O)CNC1=O (stereo in doubt; 70A)
8.82

Please examine the following record next.
Field request: pIC50 | item: N=C(N)NCCC[C@@H]1NC(=O)[C@@H]2CCCN2C(=O)CSC[C@@H](C(=O)O)NC(=O)[C@H](CC(=O)O)NC(=O)CNC1=O ({CH2CO}-PRGDC-OH; thioether N-5) 9.00

---

Record form. Attribute: pIC50. Fill in for each entry.
- Experimental target: Integrin alpha-IIb/beta-3 (Homo sapiens, UniProt P05106+P08514)
- Experiment summary: The compound was tested for the inhibition of fibrinogen receptor
- Type: protein-complex assay
*1 amine or outer side, *2 acyl side, *3 side chain or, on linkers, in order; H or OH if unused. Where a SMILES comes first, the peptide text is derived from it. Bridges are numbered along the chain shown (N, C = ends). [ ]: non-standard residue; d: D form. Cys(O)(CH2CO) = O=C([C@H](C[S+]([O-])CC(=O)[*:3])N[*:1])[*:2]
Numbers only, as −log10 of the molar value.

NCCCC[C@@H]1NC(=O)CSC[C@@H](C(=O)O)NC(=O)[C@H](CC(=O)O)NC(=O)CNC(=O)[C@H](CCCN=C(N)N)NC1=O
8.12

Each compound below has a recorded value; state its pIC50.
1. CC(=O)NCC(=O)N[C@@H](CCCNC(=N)N)C(=O)NCC(=O)N[C@@H](CC(=O)O)C(=O)N[C@H](C(N)=O)C(C)C (Ac-GRGDV-NH2)
2. N=C(N)NCCC[C@@H]1NC(=O)[C@@H](Cc2ccc(O)cc2)NC(=O)C[S+]([O-])C[C@@H](C(=O)O)NC(=O)[C@H](CC(=O)O)NC(=O)CNC1=O (stereo in doubt; 69A)
3. N=C(N)NCCC[C@@H]1NC(=O)c2cccc(c2)CSC[C@@H](C(=O)O)NC(=O)[C@H](CC(=O)O)NC(=O)CNC1=O
4. N=C(N)NCCC[C@@H]1NC(=O)[C@H](CC(N)=O)NC(=O)C[S+]([O-])C[C@@H](C(=O)O)NC(=O)[C@H](CC(=O)O)NC(=O)CNC1=O (stereo in doubt; 67A)
5. CC(C)C[C@@H]1NC(=O)C[S+]([O-])C[C@@H](C(=O)O)NC(=O)[C@H](CC(=O)O)NC(=O)CNC(=O)[C@H](CCCN=C(N)N)NC1=O (stereo partly specified) (LRGD[Cys(O)(CH2CO)]-OH; lactam N-5)

6.36
8.14
7.72
8.22
8.41

---

- Experimental target: Integrin alpha-IIb/beta-3 (Homo sapiens, UniProt P05106+P08514)
- Experiment summary: The compound was tested for the inhibition of fibrinogen receptor
- Type: protein-complex assay
*1 amine or outer side, *2 acyl side, *3 side chain or, on linkers, in order; H or OH if unused. Where a SMILES comes first, the peptide text is derived from it. Bridges are numbered along the chain shown (N, C = ends). [ ]: non-standard residue; d: D form. Cys(O)(CH2CO) = O=C([C@H](C[S+]([O-])CC(=O)[*:3])N[*:1])[*:2]
Experimental readout: IC50

Here's what some known entries look like.
N=C(N)NCCC[C@@H]1NC(=O)CNC(=O)C(c2ccccc2)SC[C@@H](C(=O)O)NC(=O)[C@H](CC(=O)O)NC(=O)CNC1=O (stereo in doubt; 18A)
15 nM
N=C(N)NCCC[C@@H]1NC(=O)[C@H](Cc2ccc(O)cc2)NC(=O)CSC[C@@H](C(N)=O)NC(=O)[C@H](CC(=O)O)NC(=O)CNC1=O ({CH2CO}-YRGDC-NH2; thioether N-5)
2.5 nM
N=C(N)NCCC[C@@H]1NC(=O)[C@H](CC(N)=O)NC(=O)CSC[C@@H](C(=O)O)NC(=O)[C@H](CC(=O)O)NC(=O)CNC1=O ({CH2CO}-NRGDC-OH; thioether N-5)
2.7 nM
N=C(N)NCCC[C@@H]1NC(=O)CNC(=O)C(c2ccccc2)SC[C@@H](C(=O)O)NC(=O)[C@H](CC(=O)O)NC(=O)CNC1=O (stereo in doubt; 18B)
0.5 nM
CCC1SC[C@@H](C(=O)O)NC(=O)[C@H](CC(=O)O)NC(=O)CNC(=O)[C@H](CCCN=C(N)N)NC(=O)CNC1=O (stereo in doubt; 25A)
20 nM

Each compound below has a recorded value; state its IC50.
1. N=C(N)NCCC[C@@H]1NC(=O)[C@@H](CC(N)=O)NC(=O)CSC[C@@H](C(=O)O)NC(=O)[C@H](CC(=O)O)NC(=O)CNC1=O ({CH2CO}-[dN]RGDC-OH; thioether N-5)
2. N=C(N)NCCC[C@@H]1NC(=O)CNC(=O)C(c2ccc(-c3ccccc3)cc2)SC[C@@H](C(=O)O)NC(=O)[C@H](CC(=O)O)NC(=O)CNC1=O (stereo in doubt; 19A)
3. N=C(N)NCCC[C@@H]1NC(=O)[C@@H](CCCCN)NC(=O)CSC[C@@H](C(=O)O)NC(=O)[C@H](CC(=O)O)NC(=O)CNC1=O
4. N=C(N)NCCC[C@@H]1NC(=O)[C@@H](CO)NC(=O)CSC[C@@H](C(=O)O)NC(=O)[C@H](CC(=O)O)NC(=O)CNC1=O
5. CCCC1SC[C@@H](C(=O)O)NC(=O)[C@H](CC(=O)O)NC(=O)CNC(=O)[C@H](CCCNC(=N)N)NC(=O)CNC1=O (stereo in doubt; 23B)
6. CC(C)C[C@H](NC(=O)[C@H](CC(=O)O)NC(=O)CNC(=O)[C@@H](N)CCCN=C(N)N)C(=O)O (H-RGDL-OH)
7. CSCC[C@@H]1NC(=O)CSC[C@@H](C(=O)O)NC(=O)[C@H](CC(=O)O)NC(=O)CNC(=O)[C@H](CCCNC(=N)N)NC1=O

1: 35 nM; 2: 5 nM; 3: 20 nM; 4: 22 nM; 5: 5.4 nM; 6: 105 nM; 7: 4 nM

Each compound below has a recorded value; state its IC50.
1. CC(C)C[C@H]1NC(=O)CSC[C@@H](C(=O)O)NC(=O)[C@H](CC(=O)O)NC(=O)CNC(=O)[C@H](CCCNC(=N)N)NC1=O
2. N=C(N)NCCC[C@@H]1NC(=O)[C@H](CO)NC(=O)C[S+]([O-])C[C@@H](C(=O)O)NC(=O)[C@H](CC(=O)O)NC(=O)CNC1=O (stereo partly drawn) (SRGD[Cys(O)(CH2CO)]-OH; lactam N-5)
3. N=C(N)NCCC[C@@H]1NC(=O)CNC(=O)CCSC[C@@H](C(=O)O)NC(=O)[C@H](CC(=O)O)NC(=O)CNC1=O
4. CC(C)C[C@H](NC(=O)[C@H](CC(=O)O)NC(=O)CNC(=O)[C@H](CCCN=C(N)N)NC(=O)CN)C(=O)O (H-GRGDL-OH)

1: 38 nM; 2: 8 nM; 3: 75 nM; 4: 500 nM

Each compound below has a recorded value; state its IC50.
1. N=C(N)NCCC[C@@H]1NC(=O)[C@@H](Cc2ccc(O)cc2)NC(=O)CS(=O)(=O)C[C@@H](C(=O)O)NC(=O)[C@H](CC(=O)O)NC(=O)CNC1=O
2. N=C(N)NCCC[C@@H]1NC(=O)[C@H](Cc2ccccc2)NC(=O)C[S+]([O-])C[C@@H](C(=O)O)NC(=O)[C@H](CC(=O)O)NC(=O)CNC1=O (stereo partly drawn)
3. N=C(N)NCCC[C@@H]1NC(=O)[C@@H](Cc2c[nH]cn2)NC(=O)CSC[C@@H](C(=O)O)NC(=O)[C@H](CC(=O)O)NC(=O)CNC1=O

1: 2.1 nM; 2: 6.6 nM; 3: 6.8 nM

Hey, just so you know, these numbers are from ChEMBL document CHEMBL1126061.
